The measured values listed here are drawn from the RNAGym collection of RNA variant scans (doi:10.1073/pnas.2313332121).

B1: TPR 5TU (parent)
chain: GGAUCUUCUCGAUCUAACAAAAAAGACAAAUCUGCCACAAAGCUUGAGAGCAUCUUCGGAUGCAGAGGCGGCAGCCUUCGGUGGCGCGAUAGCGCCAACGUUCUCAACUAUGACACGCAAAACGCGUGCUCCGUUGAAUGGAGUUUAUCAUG

variants of: B1; assay: polymerase ribozyme fitness, log enrichment relative to wild type (log ratio); higher = more active; in vitro selection for triplet polymerase activity
This sample holds only a part of the variants without activity.
Decide by polymerase ribozyme fitness (log ratio): equal to or exceeding -2 means T, less means F.

Q. Decide: polymerase ribozyme fitness (log ratio) of U9C A37G G42C A73U G92C C103U >= -2?
A. F

Q. Decide: polymerase ribozyme fitness (log ratio) of G50C C85U >= -2?
A. F

Q. Decide: polymerase ribozyme fitness (log ratio) of A3G C36G U77C >= -2?
A. F

Q. Decide: polymerase ribozyme fitness (log ratio) of C54A U55A U56A C96A G141C >= -2?
A. F

Q. Decide: polymerase ribozyme fitness (log ratio) of C79A C96G >= -2?
A. F

Q. Decide: polymerase ribozyme fitness (log ratio) of A37G C85U >= -2?
A. F

Q. Decide: polymerase ribozyme fitness (log ratio) of C18U C85U C105U >= -2?
A. T

Q. Decide: polymerase ribozyme fitness (log ratio) of U53A C54U G74U C75U G86U G141A >= -2?
A. F

Q. Decide: polymerase ribozyme fitness (log ratio) of G84A C132G >= -2?
A. F

Q. Decide: polymerase ribozyme fitness (log ratio) of C96A C125U G143A >= -2?
A. F

Q. Decide: polymerase ribozyme fitness (log ratio) of C8A A39G G84U A106U C149G >= -2?
A. F

Q. Decide: polymerase ribozyme fitness (log ratio) of C18A C38U C51U C96G C116G U148A >= -2?
A. F

Q. Decide: polymerase ribozyme fitness (log ratio) of A39U U44C U53A G62U G86A >= -2?
A. F

Q. Decide: polymerase ribozyme fitness (log ratio) of U6G A49C C51U G88A A107U A142G >= -2?
A. F

Q. Decide: polymerase ribozyme fitness (log ratio) of C54A C93U >= -2?
A. F

Q. Decide: polymerase ribozyme fitness (log ratio) of C93U C99A >= -2?
A. F

Q. Decide: polymerase ribozyme fitness (log ratio) of A97G G152A >= -2?
A. F

Q. Decide: polymerase ribozyme fitness (log ratio) of C54U U77C G88A C96U A106C >= -2?
A. F

Q. Decide: polymerase ribozyme fitness (log ratio) of G48C C57A C75G G83U A106G A107G A113U >= -2?
A. F

Q. Decide: polymerase ribozyme fitness (log ratio) of U6A A29G G74A C103G A107G A122U >= -2?
A. F

Q. Decide: polymerase ribozyme fitness (log ratio) of U82A C125G >= -2?
A. T

Q. Decide: polymerase ribozyme fitness (log ratio) of C18A U31G G84C A89U >= -2?
A. F

Q. Decide: polymerase ribozyme fitness (log ratio) of U7G C63A C96G >= -2?
A. F

Q. Decide: polymerase ribozyme fitness (log ratio) of C5G U33C G50C C57U G71A A73U A91U >= -2?
A. F

Q. Decide: polymerase ribozyme fitness (log ratio) of A21G A41U A64U C85G A98U >= -2?
A. F

Q. Decide: polymerase ribozyme fitness (log ratio) of C51U G141C >= -2?
A. T

Q. Decide: polymerase ribozyme fitness (log ratio) of A28G U44A G83C A147G >= -2?
A. F

Q. Decide: polymerase ribozyme fitness (log ratio) of A22C U78C A98G U102G U151G >= -2?
A. F

Q. Decide: polymerase ribozyme fitness (log ratio) of C8A A16G A29U A47U G71U C93A A106G G133U C149U >= -2?
A. F

Q. Decide: polymerase ribozyme fitness (log ratio) of A30G G48U G86U C149U >= -2?
A. F

Q. Decide: polymerase ribozyme fitness (log ratio) of A3C C10A G11U U55A G81C C85U G128A >= -2?
A. F

Q. Decide: polymerase ribozyme fitness (log ratio) of G59U C96U A142G >= -2?
A. T

Q. Decide: polymerase ribozyme fitness (log ratio) of U53A G58A G80A G81A C87U >= -2?
A. F

Q. Decide: polymerase ribozyme fitness (log ratio) of A40C G86A G141C A147C >= -2?
A. F

Q. Decide: polymerase ribozyme fitness (log ratio) of C27U A91G A147C G152U >= -2?
A. F

Q. Decide: polymerase ribozyme fitness (log ratio) of G50A G70A >= -2?
A. F

Q. Decide: polymerase ribozyme fitness (log ratio) of A49G G50U C51U C96U A98C G126A U134G U146A >= -2?
A. F

Q. Decide: polymerase ribozyme fitness (log ratio) of C27U A97G C131A U151C >= -2?
A. F

Q. Decide: polymerase ribozyme fitness (log ratio) of G11A U55A U101G >= -2?
A. T

Q. Decide: polymerase ribozyme fitness (log ratio) of A37U C51U G92U >= -2?
A. F

Q. Decide: polymerase ribozyme fitness (log ratio) of C116U A119U >= -2?
A. T

Q. Decide: polymerase ribozyme fitness (log ratio) of A28C A52U U55G C87G C125U G152A >= -2?
A. F

Q. Decide: polymerase ribozyme fitness (log ratio) of A21C A28U A30U A47G >= -2?
A. F

Q. Decide: polymerase ribozyme fitness (log ratio) of A21C U33A G50A G62A U90C C95A >= -2?
A. F

Q. Decide: polymerase ribozyme fitness (log ratio) of A12C C14A A29G G81A A91G C93U C103A >= -2?
A. F

Q. Decide: polymerase ribozyme fitness (log ratio) of A19G G83C >= -2?
A. T

Q. Decide: polymerase ribozyme fitness (log ratio) of G74A U77G >= -2?
A. F

Q. Decide: polymerase ribozyme fitness (log ratio) of A49U C69G C75A U90G >= -2?
A. F

Q. Decide: polymerase ribozyme fitness (log ratio) of C18U A39C C57U G83A C95U U148C C149A >= -2?
A. F

Q. Decide: polymerase ribozyme fitness (log ratio) of A37C C43U A73C U77C C93U C116A U135G G136U >= -2?
A. F

Q. Decide: polymerase ribozyme fitness (log ratio) of U9A G141C >= -2?
A. F

Q. Decide: polymerase ribozyme fitness (log ratio) of G34A C87A G141A >= -2?
A. F

Q. Decide: polymerase ribozyme fitness (log ratio) of C27A C75U C93G A115U >= -2?
A. F

Q. Decide: polymerase ribozyme fitness (log ratio) of A52G C54G G67C G81A C95G >= -2?
A. F

Q. Decide: polymerase ribozyme fitness (log ratio) of A16U A40G U44A G71C C85A G141A G143U >= -2?
A. F

Q. Decide: polymerase ribozyme fitness (log ratio) of U13C G94A >= -2?
A. T

Q. Decide: polymerase ribozyme fitness (log ratio) of C57G G58A A60G A137U >= -2?
A. F

Q. Decide: polymerase ribozyme fitness (log ratio) of G46A C96U U101A >= -2?
A. F

Q. Decide: polymerase ribozyme fitness (log ratio) of A16G A20U G46U A60G A138C >= -2?
A. F

Q. Decide: polymerase ribozyme fitness (log ratio) of G71A C95U C132U >= -2?
A. F

Q. Decide: polymerase ribozyme fitness (log ratio) of A66U G88A U145G U148C A150C >= -2?
A. F

Q. Decide: polymerase ribozyme fitness (log ratio) of C14U C54U C57U C72U G83A >= -2?
A. F

Q. Decide: polymerase ribozyme fitness (log ratio) of A16G C27A C35G C43A U56G G58C C93U G117C A119C A121U G136A >= -2?
A. F

Q. Decide: polymerase ribozyme fitness (log ratio) of A26U G80A A98C U101G >= -2?
A. F

Q. Decide: polymerase ribozyme fitness (log ratio) of A39G G59A C116U U144C >= -2?
A. F

Q. Decide: polymerase ribozyme fitness (log ratio) of A37C U55A G133C U144A >= -2?
A. F

Q. Decide: polymerase ribozyme fitness (log ratio) of A12G C95U >= -2?
A. T

Q. Decide: polymerase ribozyme fitness (log ratio) of A47U C54A >= -2?
A. T

Q. Decide: polymerase ribozyme fitness (log ratio) of C54A U55A C57A >= -2?
A. T

Q. Decide: polymerase ribozyme fitness (log ratio) of U104G U135C G143C >= -2?
A. F

Q. Decide: polymerase ribozyme fitness (log ratio) of U15C C38U G86U A91U G126U U134G A142G >= -2?
A. F

Q. Decide: polymerase ribozyme fitness (log ratio) of U56G C116G >= -2?
A. T

Q. Decide: polymerase ribozyme fitness (log ratio) of A47G G83C U134A G140U >= -2?
A. F

Q. Decide: polymerase ribozyme fitness (log ratio) of C54U G84A U102G >= -2?
A. F

Q. Decide: polymerase ribozyme fitness (log ratio) of G58C C87U A115G C116G A121U G136U >= -2?
A. F

Q. Decide: polymerase ribozyme fitness (log ratio) of C5A A24G A64C G68A C76U C79U G83C U90A C95G A115U A138G >= -2?
A. F

Q. Decide: polymerase ribozyme fitness (log ratio) of G59C A89U C96G A107G >= -2?
A. F

Q. Decide: polymerase ribozyme fitness (log ratio) of C18G C57U >= -2?
A. T

Q. Decide: polymerase ribozyme fitness (log ratio) of C72U G86C C105A C114U G140U >= -2?
A. F

Q. Decide: polymerase ribozyme fitness (log ratio) of U6G C35U C75A A98G A121U >= -2?
A. F

Q. Decide: polymerase ribozyme fitness (log ratio) of G46A G84A >= -2?
A. F

Q. Decide: polymerase ribozyme fitness (log ratio) of C35U G92A C96A >= -2?
A. F

Q. Decide: polymerase ribozyme fitness (log ratio) of A22G C76U >= -2?
A. T
